# Tested on: A549 (human lung cancer)
# Test Details: Solid tumor cell growth inhibition, MTT, 72 h (Example 7)
# Type: cell-based
# Measurement Context: Homo sapiens; 72 h, MTT, A549
Parameter Measured: IC90 (µg/mL)

Here's what some known entries look like.
[
  {
    "Compound": "COc1ccc2cc1Oc1ccc(cc1)C[C@H]1c3cc(c(OC)cc3CCN1C)Oc1c(OC)c(OC)c(CN3CCOCC3)c3c1[C@H](C2)N(C)CC3 [BS-TE-307]",
    "Parameter Measured": "IC90",
    "Test Value": 8
  },
  {
    "Compound": "COc1ccc2cc1Oc1ccc(cc1)C[C@H]1c3cc(c(OC)cc3CCN1C)Oc1c(OC)c(OC)c(CNCC(C)O)c3c1[C@H](C2)N(C)CC3 (stereo partly drawn) [BS-TE-315]",
    "Parameter Measured": "IC90",
    "Test Value": 9.36
  },
  {
    "Compound": "COc1ccc2cc1Oc1ccc(cc1)C[C@H]1c3cc(c(OC)cc3CCN1C)Oc1c(OC)c(OC)c(CSc3ccccc3)c3c1[C@H](C2)N(C)CC3 [BS-TE-421]",
    "Parameter Measured": "IC90",
    "Test Value": 8
  },
  {
    "Compound": "COc1ccc2cc1Oc1ccc(cc1)C[C@H]1c3cc(c(OC)cc3CCN1C)Oc1c(OC)c(OC)c(CN3CCCC(CO)C3)c3c1[C@H](C2)N(C)CC3 (stereo partly drawn) [BS-TE-351]",
    "Parameter Measured": "IC90",
    "Test Value": 16
  },
  {
    "Compound": "COCCCOCc1c2c3c(c(OC)c1OC)Oc1cc4c(cc1OC)CCN(C)[C@H]4Cc1ccc(cc1)Oc1cc(ccc1OC)C[C@@H]3N(C)CC2 [BS-TE-416]",
    "Parameter Measured": "IC90",
    "Test Value": 11
  }
]

1: COc1ccc2cc1Oc1ccc(cc1)C[C@H]1c3cc(c(OC)cc3CCN1C)Oc1c(OC)c(OC)c(CN3CCCCC3)c3c1[C@H](C2)N(C)CC3 [BS-TE-355]
2: COc1ccc2cc1Oc1ccc(cc1)C[C@H]1c3cc(c(OC)cc3CCN1C)Oc1c(OC)c(OC)c(CNCc3ccccn3)c3c1[C@H](C2)N(C)CC3 [BS-TE-352]
Request: Which has the smaller recorded IC90, 1 or 2 ? Answer = label.
Result: 2
(2: 4.58 µg/mL, 1: 14.9 µg/mL)
